Hey, just so you know, these numbers are from the Immune Epitope Database (IEDB).

- System tested: HLA-B*07:02
- Protocol summary: IEDB peptide-MHC binding, purified MHC/competitive/fluorescence; bounds were set here for any values at or beyond the usual limits of such assays
- Condition label: source organism: Variola virus
Metric name: pIC50
API: returns pIC50 as number; meaning -log10 of concentration in mol/L.

Notebook: pull reported pIC50 for HLA-B*07:02, entry WISHRPVVL 5.15

Also need YLFGGFSTL , thanks. 5.12

----------
- System tested: HLA-B*15:01
- Protocol summary: IEDB peptide-MHC binding, purified MHC/direct/fluorescence; filed as Kd, often an IC50 or EC50 that approximates it; bounds were set here for any values at or beyond the usual limits of such assays
- Condition label: source organism: Yellow fever virus
Metric name: Kd

Quick one: Kd for VNRWLFRHL ? ≥ 20 µM

----------
- System tested: HLA-A*29:02
- Protocol summary: IEDB peptide-MHC binding, purified MHC/direct/fluorescence; filed as Kd, often an IC50 or EC50 that approximates it; bounds were set here for any values at or beyond the usual limits of such assays
- Condition label: source organism: Mycobacterium avium 104
pKd: −log10 of the molar value.
Metric name: pKd

Notebook: pull reported pKd for HLA-A*29:02, entry EHVQGDIDL ≤ 4.70

----------
- System tested: HLA-A*11:01
- Protocol summary: IEDB peptide-MHC binding, purified MHC/direct/fluorescence; filed as Kd, often an IC50 or EC50 that approximates it; bounds were set here for any values at or beyond the usual limits of such assays
- Condition label: source organism: Influenza A virus (A/Wisconsin/4755/1994(H1N1))
pKd: −log10 of the molar value.
Metric name: pKd

Quick one: pKd for ITKEKKEEL ? ≤ 4.70

----------
- System tested: HLA-B*57:01
- Protocol summary: IEDB peptide-MHC binding, purified MHC/direct/fluorescence; filed as Kd, often an IC50 or EC50 that approximates it; bounds were set here for any values at or beyond the usual limits of such assays
- Condition label: source organism: Lake Victoria marburgvirus - Popp
Metric name: pKd
API: returns pKd as number; meaning -log10 of concentration in mol/L.

Quick one: pKd for ITDITSPLW ? 7.19

----------
- System tested: HLA-B*40:01
- Protocol summary: IEDB peptide-MHC binding, purified MHC/competitive/radioactivity; filed as Kd, often an IC50 or EC50 that approximates it; bounds were set here for any values at or beyond the usual limits of such assays
- Condition label: source organism: Dengue virus 3 Martinique/1243/1999
Items are presented alongside their recorded pKd.
API: returns pKd as number; meaning -log10 of concentration in mol/L.

Would you please look over these solved cases?
1) RQWFFDLPL; 7.38
2) LEHGGCVTTM; 8.03
3) GEGVLSKADL; 7.37

Quick one: pKd for NEGVMAVGL ? 6.65

----------
- System tested: HLA-A*33:01
- Protocol summary: IEDB peptide-MHC binding, purified MHC/competitive/radioactivity; filed as Kd, often an IC50 or EC50 that approximates it; bounds were set here for any values at or beyond the usual limits of such assays
- Condition label: source organism: Dengue virus 3 Martinique/1243/1999
Items are presented alongside their recorded pKd.
API: returns pKd as number; meaning -log10 of concentration in mol/L.

Quick one: pKd for WSLMYFHRR ? 9.63

Also need FWKLVDRER , thanks. 7.35

Also need TYLALIATFK , thanks. 7.16

----------
- System tested: HLA-B*15:42
- Protocol summary: IEDB peptide-MHC binding, purified MHC/competitive/fluorescence; filed as Kd, often an IC50 or EC50 that approximates it; bounds were set here for any values at or beyond the usual limits of such assays
- Condition label: source organism: Mopeia Lassa virus reassortant 29
pKd: −log10 of the molar value.
Metric name: pKd

Notebook: pull reported pKd for HLA-B*15:42, entry RLKFSLSYK ≤ 5.30

----------
- System tested: HLA-B*58:01
- Protocol summary: IEDB peptide-MHC binding, purified MHC/direct/fluorescence; filed as Kd, often an IC50 or EC50 that approximates it; bounds were set here for any values at or beyond the usual limits of such assays
- Condition label: source organism: Lake Victoria marburgvirus - Popp
Metric name: pKd
API: returns pKd as number; meaning -log10 of concentration in mol/L.

Quick one: pKd for ITDITSPLW ? 8.52

----------
- System tested: HLA-B*57:01
- Protocol summary: IEDB peptide-MHC binding, purified MHC/competitive/fluorescence; filed as Kd, often an IC50 or EC50 that approximates it; bounds were set here for any values at or beyond the usual limits of such assays
- Condition label: source organism: Vibrio antiquarius
Metric name: pKd
API: returns pKd as number; meaning -log10 of concentration in mol/L.

Quick one: pKd for LVAPHMAMM ? 5.95

----------
- System tested: HLA-B*18:01
- Protocol summary: IEDB peptide-MHC binding, purified MHC/direct/fluorescence; filed as Kd, often an IC50 or EC50 that approximates it; bounds were set here for any values at or beyond the usual limits of such assays
- Condition label: source organism: Coxiella burnetii
pKd: −log10 of the molar value.
Metric name: pKd

Quick one: pKd for VFFKQWFEK ? ≤ 4.70

----------
- System tested: HLA-B*08:01
- Protocol summary: IEDB peptide-MHC binding, purified MHC/competitive/fluorescence; bounds were set here for any values at or beyond the usual limits of such assays
- Condition label: source organism: Variola virus
Metric name: IC50 (µM)
Quick reminder: number only, in µM, skip the unit.

Quick one: IC50 for WISHRPVVL ? 25.7

----------
- System tested: HLA-B*39:01
- Protocol summary: IEDB peptide-MHC binding, purified MHC/direct/fluorescence; filed as Kd, often an IC50 or EC50 that approximates it; bounds were set here for any values at or beyond the usual limits of such assays
- Condition label: source organism: Crocodilepox virus
Metric name: Kd

Quick one: Kd for VVARLGVPY ? ≥ 20 µM

----------
- System tested: HLA-A*11:01
- Protocol summary: IEDB peptide-MHC binding, purified MHC/competitive/radioactivity; filed as Kd, often an IC50 or EC50 that approximates it; bounds were set here for any values at or beyond the usual limits of such assays
- Condition label: source organism: Dengue virus 4 Philippines/H241/1956
Metric name: Kd (nM)
Quick reminder: number only, in nM, skip the unit.

1. ATLKNVTEVK; 279

Turning to the following sequence.
Notebook: pull reported Kd for HLA-A*11:01, entry YVLGIFLRK 9.88

----------
- System tested: HLA-B*51:01
- Protocol summary: IEDB peptide-MHC binding, purified MHC/competitive/radioactivity; filed as Kd, often an IC50 or EC50 that approximates it; bounds were set here for any values at or beyond the usual limits of such assays
- Condition label: source organism: Dengue virus 1 Brazil/97-11/1997
Metric name: pKd
API: returns pKd as number; meaning -log10 of concentration in mol/L.

Quick one: pKd for VPLLALGCY ? 4.83

----------
- System tested: HLA-A*31:01
- Protocol summary: IEDB peptide-MHC binding, purified MHC/competitive/radioactivity; filed as Kd, often an IC50 or EC50 that approximates it; bounds were set here for any values at or beyond the usual limits of such assays
- Condition label: source organism: Dengue virus 3 Martinique/1243/1999
Metric name: Kd (nM)
Quick reminder: number only, in nM, skip the unit.

Quick one: Kd for WSLMYFHRR ? 0.548

----------
- System tested: HLA-A*02:16
- Protocol summary: IEDB peptide-MHC binding, purified MHC/direct/fluorescence; filed as Kd, often an IC50 or EC50 that approximates it; bounds were set here for any values at or beyond the usual limits of such assays
- Condition label: source organism: Zaire ebolavirus
Items are presented alongside their recorded Kd.

1. IMYDHLPGF; ≥ 20 µM

Quick one: Kd for ISSGETRSF ? ≥ 20 µM

----------
- System tested: HLA-B*44:03
- Protocol summary: IEDB peptide-MHC binding, purified MHC/competitive/radioactivity; filed as Kd, often an IC50 or EC50 that approximates it; bounds were set here for any values at or beyond the usual limits of such assays
- Condition label: source organism: Mammarenavirus whitewaterense
pKd: −log10 of the molar value.
Metric name: pKd

Notebook: pull reported pKd for HLA-B*44:03, entry SDHLISEIL ≤ 4.11

----------
- System tested: HLA-B*40:01
- Protocol summary: IEDB peptide-MHC binding, purified MHC/competitive/radioactivity; filed as Kd, often an IC50 or EC50 that approximates it; bounds were set here for any values at or beyond the usual limits of such assays
- Condition label: source organism: Dengue virus 2 Jamaica/1409/1983
Items are presented alongside their recorded Kd.
Quick reminder: number only, in nM, skip the unit.

1) LEHGSCVTTM; 64.8

Quick one: Kd for VESWEEVPYL ? 41

----------
- System tested: HLA-B*27:03
- Protocol summary: IEDB peptide-MHC binding, purified MHC/direct/fluorescence; filed as Kd, often an IC50 or EC50 that approximates it; bounds were set here for any values at or beyond the usual limits of such assays
- Condition label: source organism: Campylobacter jejuni
pKd: −log10 of the molar value.
Metric name: pKd

Quick one: pKd for YWDQVTFFY ? ≤ 4.70
